# target_or_test_system: D2-receptors (Rattus norvegicus, UniProt P61169)
# Sequence (P61169 whole entry): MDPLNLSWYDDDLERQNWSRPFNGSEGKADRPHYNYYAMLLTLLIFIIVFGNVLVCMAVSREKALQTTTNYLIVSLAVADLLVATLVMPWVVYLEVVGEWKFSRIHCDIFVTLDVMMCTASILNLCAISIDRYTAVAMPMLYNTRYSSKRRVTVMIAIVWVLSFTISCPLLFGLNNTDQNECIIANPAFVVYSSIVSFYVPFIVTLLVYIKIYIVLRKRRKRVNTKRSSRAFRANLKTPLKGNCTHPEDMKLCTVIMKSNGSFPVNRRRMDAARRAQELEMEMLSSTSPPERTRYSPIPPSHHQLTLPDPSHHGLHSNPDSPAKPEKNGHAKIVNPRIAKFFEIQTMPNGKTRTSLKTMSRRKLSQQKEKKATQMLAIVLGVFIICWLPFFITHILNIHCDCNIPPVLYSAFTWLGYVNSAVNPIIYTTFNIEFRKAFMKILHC
# assay_info: Affinity to D2-receptors, 3H-spiroperidol ligand (Test 2)
# condition_set: 3H-spiroperidol as ligand
The reader will find reported pKi values listed item by item below.
As a rule, pKi stands for the negative log10 of the concentration, concentration in M.

Example results:
mol_smiles | target_or_test_system | reading
NC(=O)c1cccnc1N1CCN(CCCC(c2ccc(F)cc2)c2ccc(F)cc2)CC1 | D2-receptors (Rattus norvegicus, UniProt P61169) | 7.52
Fc1ccc(C(CCCN2CCN(c3ccccn3)CC2)c2ccc(F)cc2)cc1 | D2-receptors (Rattus norvegicus, UniProt P61169) | 7.22

Could you now look at the following compound, please?
Lookup: Give recorded pKi. `Fc1ccc(C(CCCN2CCCN(c3ccccn3)CC2)c2ccc(F)cc2)cc1`
Found: 7.60

---

# target_or_test_system: 5HT2-receptors (Rattus norvegicus, UniProt P14842)
# Construct: from tissue; host or cells: brain membranes
# Sequence (P14842 whole entry): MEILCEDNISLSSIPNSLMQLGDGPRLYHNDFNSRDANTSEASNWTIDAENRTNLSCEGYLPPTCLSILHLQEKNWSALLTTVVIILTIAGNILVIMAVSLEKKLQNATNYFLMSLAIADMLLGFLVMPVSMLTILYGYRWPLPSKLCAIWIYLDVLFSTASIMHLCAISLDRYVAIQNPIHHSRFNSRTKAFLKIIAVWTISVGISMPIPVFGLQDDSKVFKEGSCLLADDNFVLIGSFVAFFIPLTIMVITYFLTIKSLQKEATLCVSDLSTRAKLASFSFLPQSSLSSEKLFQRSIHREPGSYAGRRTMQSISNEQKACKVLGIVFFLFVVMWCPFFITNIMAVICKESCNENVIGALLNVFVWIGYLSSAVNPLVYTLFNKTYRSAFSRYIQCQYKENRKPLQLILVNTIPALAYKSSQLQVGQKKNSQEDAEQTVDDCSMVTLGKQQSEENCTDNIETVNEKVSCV
# assay_info: Affinity to 5HT2-receptors, 3H-ketanserine ligand (Test 3)
# Type: binding
# condition_set: 3H-ketanserine as ligand
The reader will find reported Ki values listed item by item below.
A number alone suffices; assume nM.

molecule | reading
NC(=O)c1cccnc1N1CCN(CCCC(c2ccc(F)cc2)c2ccc(F)cc2)CC1 [1:6] | 2.1
Fc1ccc(C(CCCN2CCCN(c3ccccn3)CC2)c2ccc(F)cc2)cc1 [1:15] | 1.3

Could you now look at the following molecule, please?
Lookup: Give recorded Ki. Fc1ccc(C(CCCN2CCN(c3ccccn3)CC2)c2ccc(F)cc2)cc1 [3:1]
Found: 5.8
